# system name: glycine site of the NMDA receptor complex (Rattus norvegicus)
# Construct: Crude synaptic (P2) membranes are prepared from rat forebrains
# measurement notes: In vitro [3H]-glycine binding to rat brain membranes (Test 1)
# condition set: 50% displacement of specific [3H]-glycine binding; 50 nM [3H]-glycine, 4° C., 30 min
property measured: pIC50
Reminder that pIC50 means the negative base-10 logarithm of the concentration expressed in mol/L.

O=c1cnc2c([nH]1)-c1ccccc1C21OCCO1 :: 5.43
CN1CCN(C2c3ccccc3-c3[nH]c(=O)c(=O)[nH]c32)CC1 (stereo not shown) :: 6.82
O=C1c2ccccc2-c2[nH]c(=O)c(=O)[nH]c21 :: 6.04

// Input: O=c1[nH]c2c([nH]c1=O)C(O)c1ccccc1-2 (stereo not shown) . Output its pIC50 only.
6.04
